Molecular target: HLA-B*15:01
Assay: IEDB peptide-MHC binding, purified MHC/competitive/fluorescence; filed as Kd, often an IC50 or EC50 that approximates it; bounds were set here for any values at or beyond the usual limits of such assays
Conditions: source organism: Entamoeba histolytica HM-1:IMSS
pKd: −log10 of the molar value.

sequence-record: KTRMEDYYL
pKd: ≤ 4.70

----------
Target: HLA-A*31:01
Assay: IEDB peptide-MHC binding, purified MHC/direct/fluorescence; filed as Kd, often an IC50 or EC50 that approximates it; bounds were set here for any values at or beyond the usual limits of such assays
Conditions: source organism: Rickettsia sibirica

sequence-record: RTGDIGCFK
system-name: HLA-A*31:01
Kd: 223 nM
